List of pKd values.
Biological target: T1, XtrLin28b CSD (Xenopus tropicalis, UniProt B4F6I0 27-114)
T1 sequence: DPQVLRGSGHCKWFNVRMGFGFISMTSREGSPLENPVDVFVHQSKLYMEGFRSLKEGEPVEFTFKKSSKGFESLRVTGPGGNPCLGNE
Experiment: ITC
API: returns pKd as number; meaning -log10 of concentration in mol/L.

Binder: UUUUUUU (ssRNA) [rU7]
pKd: 6.28
//
Binder: GGUCACAC (ssRNA) [rlet-7f4]
pKd: 7.18
//
Binder: GUCACACC (ssRNA) [rlet-7f5]
pKd: 7.74
//
Binder: GACAAAC (ssRNA) [rlet-7f3]
pKd: 5.87
//
Binder: GUCAUAC (ssRNA) [rlet-7f1]
pKd: 7.89

Attention now shifts to the item below.
Note down pKd recorded for GGUCACACC (ssRNA) [rlet-7f6]
7.68
